- assay name: Pharmacokinetic study in male CD-1 mice, LC/MS/MS of plasma
- Assay type: in vivo
- condition: mouse, po, intragastric, 2 mg/kg, read-out: Drug concentration in blood Cmax
Hi there, I'd appreciate the recorded Cmax for every entry that follows.
Form entry: value (nM) — number only.

Reported Cmax for Cc1sc2c(c1C)C(c1ccc(Cl)cc1)=N[C@@H](CC(=O)Nc1ccc3c(c1)CO/C3=N\OC(F)F)c1nnc(C)n1-2 [Compound 11] : what is it?
115

Reported Cmax for CO/N=C1\OCc2cc(NC(=O)C[C@@H]3N=C(c4ccc(Cl)cc4)c4c(sc(C)c4C)-n4c(C)nnc43)ccc21 [Compound 4] : what is it?
262

---

- target system: BRD4-1 (BRD4 BD1) (Homo sapiens)
- Construct: BRD4 (BD1, BD2)
- assay name: AlphaScreen binding assay of BRD4 biochemical activity (BD1)
- condition: BD1, first value of cell; 10 concentrations, single well, initial 10 μM, 3-fold dilution
Hi there, I'd appreciate the recorded IC50 for every entry that follows.

Reported IC50 for `COCCO/N=C1\OCc2cc(NC(=O)C[C@@H]3N=C(c4ccc(Cl)cc4)c4c(sc(C)c4C)-n4c(C)nnc43)ccc21` : what is it?
27 nM

Reported IC50 for Cc1sc2c(c1C)C(c1ccc(Cl)cc1)=N[C@@H](CC(=O)Nc1ccc3c(c1)CC1CON=C31)c1nnc(C)n1-2 (stereo partly drawn) : what is it?
27 nM

Reported IC50 for `CO/N=C1\OCc2cc(NC(=O)C[C@@H]3N=C(c4ccc(Cl)cc4)c4c(sc(C)c4C)-n4c(C)nnc43)ccc21` : what is it?
28 nM

Reported IC50 for `Cc1sc2c(c1C)C(c1ccc(Cl)cc1)=N[C@@H](CC(=O)Nc1ccc3c(c1)CO/C3=N\N(C)C)c1nnc(C)n1-2` : what is it?
13.1 nM

Reported IC50 for `Cc1sc2c(c1C)C(c1ccc(Cl)cc1)=N[C@@H](CC(=O)Nc1ccc3c(c1)CO/C3=N\OC(F)F)c1nnc(C)n1-2` : what is it?
72.2 nM

Reported IC50 for `Cc1sc2c(c1C)C(c1ccc(Cl)cc1)=N[C@@H](CC(=O)Nc1ccc3c(c1)CO/C3=N\C1COC1)c1nnc(C)n1-2` : what is it?
28.7 nM

---

- target system: BRD4-2 (BRD4 BD2) (Homo sapiens)
- Construct: BRD4 (BD1, BD2)
- assay name: AlphaScreen binding assay of BRD4 biochemical activity (BD2)
- condition: BD2, second value of cell; 10 concentrations, single well, initial 10 μM, 3-fold dilution
Hi there, I'd appreciate the recorded IC50 for every entry that follows.
Form entry: value (nM) — number only.

Reported IC50 for `CCO/N=C1\OCc2cc(NC(=O)C[C@@H]3N=C(c4ccc(Cl)cc4)c4c(sc(C)c4C)-n4c(C)nnc43)ccc21` : what is it?
7

Reported IC50 for `Cc1sc2c(c1C)C(c1ccc(Cl)cc1)=N[C@@H](CC(=O)Nc1ccc3c(c1)CO/C3=N\C1COC1)c1nnc(C)n1-2` : what is it?
6.06

Reported IC50 for `Cc1sc2c(c1C)C(c1ccc(Cl)cc1)=N[C@@H](CC(=O)Nc1ccc3c(c1)CO/C3=N\OC(C)C)c1nnc(C)n1-2` : what is it?
15

Reported IC50 for `Cc1sc2c(c1C)C(c1ccc(Cl)cc1)=N[C@@H](CC(=O)Nc1ccc3c(c1)CO/C3=N\N(C)C)c1nnc(C)n1-2` : what is it?
2.26

Reported IC50 for Cc1sc2c(c1C)C(c1ccc(Cl)cc1)=N[C@@H](CC(=O)Nc1ccc3c(c1)CC1CON=C31)c1nnc(C)n1-2 (stereo partly drawn) : what is it?
4.45

Reported IC50 for `CO/N=C1\OCc2cc(NC(=O)C[C@@H]3N=C(c4ccc(Cl)cc4)c4c(sc(C)c4C)-n4c(C)nnc43)ccc21` : what is it?
6.6

---

- assay name: Pharmacokinetic study in male CD-1 mice, LC/MS/MS of plasma
- Assay type: in vivo
- condition: mouse, intravenous, 1 mg/kg, read-out: Clearance rate Cl
result type: clearance (mL/min/kg)
Form entry: value (mL/min/kg) — number only.

Reported clearance for `Cc1sc2c(c1C)C(c1ccc(Cl)cc1)=N[C@@H](CC(=O)Nc1ccc3c(c1)CO/C3=N\OC(F)F)c1nnc(C)n1-2` : what is it?
11.5

Reported clearance for `CO/N=C1\OCc2cc(NC(=O)C[C@@H]3N=C(c4ccc(Cl)cc4)c4c(sc(C)c4C)-n4c(C)nnc43)ccc21` : what is it?
10.2

---

- target system: BRD4-2 (BRD4 BD2) (Homo sapiens, UniProt O60885)
- Construct: BRD4 (BD1, BD2)
- assay name: AlphaScreen binding assay of BRD4 biochemical activity (BD2)
- condition: BD2, second value of cell; 10 concentrations, single well, initial 10 μM, 3-fold dilution
Hi there, I'd appreciate the recorded IC50 for every entry that follows.
Form entry: value (nM) — number only.

Reported IC50 for `COCCO/N=C1\OCc2cc(NC(=O)C[C@@H]3N=C(c4ccc(Cl)cc4)c4c(sc(C)c4C)-n4c(C)nnc43)ccc21` : what is it?
3.56

Reported IC50 for `Cc1sc2c(c1C)C(c1ccc(Cl)cc1)=N[C@@H](CC(=O)Nc1ccc3c(c1)CO/C3=N\C#N)c1nnc(C)n1-2` : what is it?
6.23

Reported IC50 for `Cc1sc2c(c1C)C(c1ccc(Cl)cc1)=N[C@@H](CC(=O)Nc1ccc3c(c1)CO/C3=N\O)c1nnc(C)n1-2` : what is it?
7.4

Reported IC50 for `Cc1sc2c(c1C)C(c1ccc(Cl)cc1)=N[C@@H](CC(=O)Nc1ccc3c(c1)Cn1ccnc1-3)c1nnc(C)n1-2` : what is it?
1.99

Reported IC50 for `Cc1sc2c(c1C)C(c1ccc(Cl)cc1)=N[C@@H](CC(=O)Nc1ccc3c(c1)CO/C3=N\OC(F)F)c1nnc(C)n1-2` : what is it?
3.92

---

- target system: BRD4-1 (BRD4 BD1) (Homo sapiens, UniProt O60885)
- Construct: BRD4 (BD1, BD2)
- assay name: AlphaScreen binding assay of BRD4 biochemical activity (BD1)
- condition: BD1, first value of cell; 10 concentrations, single well, initial 10 μM, 3-fold dilution
result type: IC50

Item CCO/N=C1\OCc2cc(NC(=O)C[C@@H]3N=C(c4ccc(Cl)cc4)c4c(sc(C)c4C)-n4c(C)nnc43)ccc21 [Compound 9] with BRD4-1 (BRD4 BD1) (Homo sapiens, UniProt O60885) - IC50?
43.6 nM

Item Cc1sc2c(c1C)C(c1ccc(Cl)cc1)=N[C@@H](CC(=O)Nc1ccc3c(c1)CO/C3=N\C#N)c1nnc(C)n1-2 [Compound 2] with BRD4-1 (BRD4 BD1) (Homo sapiens, UniProt O60885) - IC50?
48.2 nM

Item Cc1sc2c(c1C)C(c1ccc(Cl)cc1)=N[C@@H](CC(=O)Nc1ccc3c(c1)CO/C3=N\O)c1nnc(C)n1-2 [Compound 1] with BRD4-1 (BRD4 BD1) (Homo sapiens, UniProt O60885) - IC50?
48.8 nM

Item Cc1sc2c(c1C)C(c1ccc(Cl)cc1)=N[C@@H](CC(=O)Nc1ccc3c(c1)Cn1ccnc1-3)c1nnc(C)n1-2 [Compound 12] with BRD4-1 (BRD4 BD1) (Homo sapiens, UniProt O60885) - IC50?
18.1 nM

Item Cc1sc2c(c1C)C(c1ccc(Cl)cc1)=N[C@@H](CC(=O)Nc1ccc3c(c1)CO/C3=N\OC(C)C)c1nnc(C)n1-2 [Compound 8] with BRD4-1 (BRD4 BD1) (Homo sapiens, UniProt O60885) - IC50?
85.7 nM

---

- assay name: Pharmacokinetic study in male CD-1 mice, LC/MS/MS of plasma
- Assay type: in vivo
- condition: mouse, po, intragastric, 2 mg/kg, read-out: Area under curve (0-t) AUC0-last
Hi there, I'd appreciate the recorded AUC(0-t) for every entry that follows.
Form entry: value (µM·h) — number only.

Reported AUC(0-t) for `CO/N=C1\OCc2cc(NC(=O)C[C@@H]3N=C(c4ccc(Cl)cc4)c4c(sc(C)c4C)-n4c(C)nnc43)ccc21` : what is it?
1.61

Reported AUC(0-t) for `Cc1sc2c(c1C)C(c1ccc(Cl)cc1)=N[C@@H](CC(=O)Nc1ccc3c(c1)CO/C3=N\OC(F)F)c1nnc(C)n1-2` : what is it?
1.31

---

Hi there, I'd appreciate the recorded Vd for every entry that follows.
- assay name: Pharmacokinetic study in male CD-1 mice, LC/MS/MS of plasma
- Format: in vivo
- condition: mouse, intravenous, 1 mg/kg, read-out: Apparent volume of distribution Vdss
Form entry: value (L/kg) — number only.

Reported Vd for `CO/N=C1\OCc2cc(NC(=O)C[C@@H]3N=C(c4ccc(Cl)cc4)c4c(sc(C)c4C)-n4c(C)nnc43)ccc21` : what is it?
1.84

Reported Vd for `Cc1sc2c(c1C)C(c1ccc(Cl)cc1)=N[C@@H](CC(=O)Nc1ccc3c(c1)CO/C3=N\OC(F)F)c1nnc(C)n1-2` : what is it?
2.21

Taken from patent US20220177490A1.
